Reference source: ChEMBL document CHEMBL4513216

# Test system: Plasmodium berghei
# PROTOCOL_DESCRIPTION: Screen against P. berghei liver stage (PbLuc), transformed with Luciferase, at 2uM
# Assay type: functional, HepG2
# TEST_CONTEXT: tested at 2 uM
Screen size: about 68,000 compounds; about 2,700 (4%) showed an effect of 50% or more. Shown is part of a subset that was picked to be rich in strong results.
Values of INHIBITION strictly less than 20% map to 1.0, and values of at least 20% map to 0.0.

Q. Please indicate whether the reported INHIBITION of "CC(C)NC(=O)[C@@H]1C[C@H]2OCC[C@H]2N(Cc2ccc3ccccc3n2)C1" is strictly below 20%.
A. 1.0

Q. Please indicate whether the reported INHIBITION of "O=C(CCc1nc2cc(Br)cnc2[nH]1)NCc1cccnc1" is strictly below 20%.
A. 1.0

Q. Please indicate whether the reported INHIBITION of "N#Cc1ccc(C(=O)N2CCC3(CC2)C(=O)Nc2ccccc23)cn1" is strictly below 20%.
A. 0.0

Q. Please indicate whether the reported INHIBITION of Cc1nn(C)c(N(C)C)c1CNCC(O)c1ccccc1F (centres undefined) is strictly below 20%.
A. 0.0

Q. Please indicate whether the reported INHIBITION of CCN1CC(CN(C)Cc2nc(-c3cccc(Cl)c3)oc2C)CC1=O (centres undefined) is strictly below 20%.
A. 0.0

Q. Please indicate whether the reported INHIBITION of CCc1n[nH]c(C2CN(C(=O)Cc3ccc(C)nc3)CCO2)n1 (centres undefined) is strictly below 20%.
A. 0.0

* * *

# System: Plasmodium berghei
# PROTOCOL_DESCRIPTION: Screen against P. berghei liver stage (PbLuc), transformed with Luciferase, at 2uM
# Type: functional, HepG2
# TEST_CONTEXT: tested at 2 uM
The whole screen tested about 68,000 compounds, of which about 2,700 (4%) showed an effect of 50% or more. For the sample, strong results were picked, then their nearest neighbours and some compounds at random.
Respond with true (1) for INHIBITION values of 30% and above, false (0) for values below.

COMPOUND: O=C(C1CCS(=O)(=O)CC1)N1CCC(Cc2ccc(F)cc2)CC1
LABEL_CLASS: false (0)

COMPOUND: O=C(C1CCC2(CCN(c3nncs3)CC2)C1)N1CCCC1 (configuration not stated)
LABEL_CLASS: true (1)

COMPOUND: O=C1CCC2(CCCN(C(=O)c3ccccn3)CC2)N1 (configuration not stated)
LABEL_CLASS: false (0)

COMPOUND: O=C(C1CCC2(CCN(c3nncs3)CC2)CO1)N1CCCC1 (configuration not stated)
LABEL_CLASS: false (0)

COMPOUND: COc1cc(CN2CCCCCC2c2cccs2)cc(OC)c1O (configuration not stated)
LABEL_CLASS: true (1)

Then there is this compound:
Q. State whether the measured INHIBITION reaches 30%, counting equality as reaching it, for "O=C1CO[C@@H]2CNC[C@H]2N1CC1CC1"
A. false (0)

* * *

# Tested on: Plasmodium berghei
# PROTOCOL_DESCRIPTION: Screen against P. berghei liver stage (PbLuc), transformed with Luciferase, at 2uM
# Type: functional, HepG2
# TEST_CONTEXT: tested at 2 uM
Hit rate of the full screen: of about 68,000 compounds, about 2,700 (4%) showed an effect of 50% or more. This is one part of a sample in which strong results are shown more often than they occur.
REPORTED_PROPERTY: INHIBITION (%)
Quick reminder: number only, in %, skip the unit.

Below: 3 molecules and their reported INHIBITION.
MOLECULE: COCc1nc(C(=O)N2CCN(Cc3ccsc3)CC2)cs1
REPORTED_PROPERTY: INHIBITION
UNITS: %
NUMERIC_VALUE: 8.93
//
MOLECULE: N#Cc1nc(COc2ccc3c(c2)OCO3)oc1NC1CC1
REPORTED_PROPERTY: INHIBITION
UNITS: %
NUMERIC_VALUE: 51.42
//
MOLECULE: O=C1CC(N(C(=O)c2ccc(F)c(F)c2)C2CC2)C(=O)N1 (stereo not given)
REPORTED_PROPERTY: INHIBITION
UNITS: %
NUMERIC_VALUE: -20.51

Consider CCOc1ncccc1C(=O)N1CCCC1Cn1nc(C)cc1C (stereo not given) . Its measured INHIBITION is 11.95

Consider "N#Cc1nc(COc2ccc3c(c2)OCO3)oc1NC1CCCCC1" . Its measured INHIBITION is 66.74

Consider "N#Cc1nc(COc2ccc3c(c2)OCO3)oc1N1CCCCCC1" . Its measured INHIBITION is 18.85

Consider Cn1ccnc1C(=O)N1CCOC(Cc2ccc(Cl)cc2)C1 (stereo not given) . Its measured INHIBITION is 43.23

Consider "NC(=O)NC1CCN(Cc2ccc3c(c2)CCC3)CC1" . Its measured INHIBITION is 30.42

* * *

# System: Plasmodium berghei
# PROTOCOL_DESCRIPTION: Screen against P. berghei liver stage (PbLuc), transformed with Luciferase, at 2uM
# Format: functional, HepG2
# TEST_CONTEXT: tested at 2 uM
About 2,700 (4%) of roughly 68,000 compounds showed an effect of 50% or more. The full list was thinned out, with strong results kept by preference.
Respond with class 1 for INHIBITION values of 20% and above, class 0 for values below.

These solved cases illustrate the format of a correct answer.
MOLECULE: CC(C)(C)c1cc(C[C@H]2CNCC[C@H]2CC(=O)N2CCCCC2)no1
LABEL_CLASS: class 0

MOLECULE: Cc1ccc(C(=O)N2CCC(Oc3ccc(F)cc3F)CC2)c(=O)[nH]1
LABEL_CLASS: class 1

MOLECULE: CC(C)c1ccc(CCC(=O)N2CCOCC2c2ncon2)cc1 (centres undefined)
LABEL_CLASS: class 0

MOLECULE: CC(C)Cc1nc(CSCC(=O)N2CCC(C)CC2)no1
LABEL_CLASS: class 0

MOLECULE: COCC(NC(=O)c1cc(NC(C)=O)ccc1Cl)c1ccccn1 (centres undefined)
LABEL_CLASS: class 1

MOLECULE: CCc1nc(-c2noc3ccc(C(=O)N(C)CCOC)cc23)co1
LABEL_CLASS: class 1

MOLECULE: COc1cc(F)cc(NC(=O)NCc2cccc(N(C)C)n2)c1
LABEL_CLASS: class 1

MOLECULE: Cc1ccc(CN2CCOC3(CCN(C(=O)N4CCCC4)CC3)C2)cc1
LABEL_CLASS: class 1

Then there is this molecule:
Q. State whether the measured INHIBITION reaches 20%, counting equality as reaching it, for "Cc1csc2ncc(-c3ccnc(N4CCN(C)CC4)n3)c(=O)n12"
A. class 0

* * *

# Tested on: Plasmodium berghei
# PROTOCOL_DESCRIPTION: Screen against P. berghei liver stage (PbLuc), transformed with Luciferase, at 2uM
# Format: functional, HepG2
# TEST_CONTEXT: tested at 2 uM
The whole screen tested about 68,000 compounds, of which about 2,700 (4%) showed an effect of 50% or more. The sample holds strong results, similar compounds and a random draw of the others, so the mix is not that of the screen.
Measured INHIBITION accompanies every entry in the list below.
Quick reminder: number only, in %, skip the unit.

MOLECULE: OC1(CNc2ccc(Br)cn2)CCOCC1
REPORTED_PROPERTY: INHIBITION
NUMERIC_VALUE: -58.79

MOLECULE: Cc1cc(CN2CCC(CNC(=O)CN3CCCCCC3)C2)[nH]n1 (centres undefined)
REPORTED_PROPERTY: INHIBITION
NUMERIC_VALUE: 63.17

MOLECULE: CNC(=O)CCN1CCCC1c1ccccc1Br (centres undefined)
REPORTED_PROPERTY: INHIBITION
NUMERIC_VALUE: 51.76

MOLECULE: Cc1cccc(CN2CCCC2c2cccc(CCC(=O)O)n2)c1 (centres undefined)
REPORTED_PROPERTY: INHIBITION
NUMERIC_VALUE: -46.81

MOLECULE: CN(C)c1cc(C(=O)N2CCCN(Cc3cscn3)CC2)ccn1
REPORTED_PROPERTY: INHIBITION
NUMERIC_VALUE: 51.21

MOLECULE: Cc1cc(NC(=O)C(C)C)n(-c2nc(C)c(C)c(=O)[nH]2)n1
REPORTED_PROPERTY: INHIBITION
NUMERIC_VALUE: 27.11

Consider CC(CNC(=O)c1c[nH]nn1)Oc1ccc(Cl)cc1 (centres undefined) . Its measured INHIBITION is -4.64

Consider "CC1=N[C@@]2(CC[C@@H]3CN(CC(=O)N(C)C)C[C@@H]32)C(=O)N1CC1CC1" . Its measured INHIBITION is -25.29
